Values from ChEMBL document CHEMBL4033796

Target: 3',5'-cyclic-AMP phosphodiesterase 4B (Homo sapiens)
Sequence (Q07343 whole entry): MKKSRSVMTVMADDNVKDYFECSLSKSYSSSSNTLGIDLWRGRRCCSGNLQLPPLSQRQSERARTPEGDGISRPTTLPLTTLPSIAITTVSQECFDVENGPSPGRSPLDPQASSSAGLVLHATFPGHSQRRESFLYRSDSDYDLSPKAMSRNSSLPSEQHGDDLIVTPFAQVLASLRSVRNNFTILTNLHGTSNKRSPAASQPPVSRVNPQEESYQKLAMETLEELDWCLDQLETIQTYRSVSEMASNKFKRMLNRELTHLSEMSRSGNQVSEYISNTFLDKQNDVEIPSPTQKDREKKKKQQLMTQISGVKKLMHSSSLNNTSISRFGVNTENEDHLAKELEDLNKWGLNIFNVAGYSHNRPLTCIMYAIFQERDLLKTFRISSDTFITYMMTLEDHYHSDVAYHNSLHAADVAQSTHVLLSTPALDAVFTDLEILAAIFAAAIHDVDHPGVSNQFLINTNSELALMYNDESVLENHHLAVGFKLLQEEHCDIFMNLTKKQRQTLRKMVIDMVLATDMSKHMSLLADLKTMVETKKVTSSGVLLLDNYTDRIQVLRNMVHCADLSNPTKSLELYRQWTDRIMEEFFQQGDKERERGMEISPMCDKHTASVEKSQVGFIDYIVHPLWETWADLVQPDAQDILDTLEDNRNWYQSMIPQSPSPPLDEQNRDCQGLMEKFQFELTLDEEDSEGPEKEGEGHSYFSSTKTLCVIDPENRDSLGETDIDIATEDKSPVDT
Test: Inhibition of recombinant human PDE4B1 using [3H]-cAMP as substrate […] measured after 60 mins by scintillation proximity assay
Rule: IC50 below 8 nM gives Satisfied, anything at or above gives Not satisfied.

COc1cccc(Nc2cc(-c3ccncc3)nc3c2C(=O)NCC3)c1; Satisfied
COc1cccc(Nc2cc(-c3cccc(-c4ccc(C(=O)O)cc4)c3)nc3c2C(=O)NCC3)c1; Satisfied
COC(=O)c1ccc(O)c(-c2cccc(-c3cc(Nc4cccc(OC)c4)c4c(n3)CCNC4=O)c2)c1; Satisfied

In the record for `COc1cccc(Nc2cc(-c3cccc(-c4cccc(O)c4)c3)nc3c2C(=O)NCC3)c1` , is IC50 less than 8 nM?
Satisfied

In the record for `O=C1NCCc2nc(-c3ccccc3)cc(Nc3n[nH]c4ncccc34)c21` , is IC50 less than 8 nM?
Satisfied

In the record for `N#C/N=C1\NCCc2nc(-c3ccc(F)c(F)c3)cc(Nc3cccc4ncccc34)c21` , is IC50 less than 8 nM?
Satisfied

In the record for `COc1cccc(Nc2cc(C3CC3)nc3c2C(=O)NCC3)c1` , is IC50 less than 8 nM?
Not satisfied

In the record for `CCOC(=O)c1ccc(-c2cccc(-c3cc(Nc4cccc(OC)c4)c4c(n3)CCNC4=O)c2)cc1` , is IC50 less than 8 nM?
Satisfied

In the record for `COc1cccc(Nc2cc(-c3cccc(-c4cc(C(=O)O)ccc4O)c3)nc3c2C(=O)NCC3)c1` , is IC50 less than 8 nM?
Not satisfied

In the record for `O=C1NCCc2nc(-c3ccccc3)cc(Nc3cccc4c3ccc[n+]4[O-])c21` , is IC50 less than 8 nM?
Satisfied

In the record for `O=C1NCCc2nc(-c3ccccc3)cc(Nc3nn(-c4ccccc4)c4ncccc34)c21` , is IC50 less than 8 nM?
Not satisfied

In the record for `Cc1ccncc1Nc1cc(-c2ccccc2)nc2c1C(=O)NCC2` , is IC50 less than 8 nM?
Not satisfied
